Biological target: WT JR-FL gp120 (HIV-1 (isolate JR-FL))
Experiment: ELISA on coated gp120; EC50 by nonlinear regression
Reported EC50 is given for each of the following binders.
# unit: µg/mL | format: bare number

>>> quantitative_result("PGT-128 (antibody, V domains shown) VH: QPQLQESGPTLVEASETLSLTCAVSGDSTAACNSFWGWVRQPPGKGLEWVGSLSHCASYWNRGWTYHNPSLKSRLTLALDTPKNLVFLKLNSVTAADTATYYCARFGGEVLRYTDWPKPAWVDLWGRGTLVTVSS VL: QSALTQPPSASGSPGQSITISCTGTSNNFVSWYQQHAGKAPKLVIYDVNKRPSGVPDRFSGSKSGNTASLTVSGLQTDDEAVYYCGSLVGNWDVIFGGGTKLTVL")
0.1
>>> quantitative_result("PGT-136 (antibody, V domains shown) VH: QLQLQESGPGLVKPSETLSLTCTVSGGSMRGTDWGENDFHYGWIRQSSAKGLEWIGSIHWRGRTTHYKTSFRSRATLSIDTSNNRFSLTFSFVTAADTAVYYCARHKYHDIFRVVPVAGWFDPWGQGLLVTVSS VL: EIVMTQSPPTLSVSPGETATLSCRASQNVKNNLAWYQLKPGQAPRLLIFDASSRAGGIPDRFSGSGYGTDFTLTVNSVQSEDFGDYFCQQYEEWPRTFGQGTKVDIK")
0.2

Give its EC50 value. Item: PGT-135 (antibody, V domains shown) VH: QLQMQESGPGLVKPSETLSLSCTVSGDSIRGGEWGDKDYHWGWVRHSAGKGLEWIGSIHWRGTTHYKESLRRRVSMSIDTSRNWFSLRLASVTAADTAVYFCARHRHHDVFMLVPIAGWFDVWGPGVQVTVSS VL: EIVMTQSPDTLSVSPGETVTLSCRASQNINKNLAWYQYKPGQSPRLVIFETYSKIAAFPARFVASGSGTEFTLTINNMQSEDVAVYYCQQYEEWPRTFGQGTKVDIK
0.1

Also need PGT-137 (antibody, V domains shown) VH: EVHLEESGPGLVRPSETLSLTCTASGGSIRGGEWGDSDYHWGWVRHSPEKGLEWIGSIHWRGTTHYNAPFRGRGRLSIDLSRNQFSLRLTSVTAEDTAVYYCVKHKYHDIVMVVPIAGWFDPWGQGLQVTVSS VL: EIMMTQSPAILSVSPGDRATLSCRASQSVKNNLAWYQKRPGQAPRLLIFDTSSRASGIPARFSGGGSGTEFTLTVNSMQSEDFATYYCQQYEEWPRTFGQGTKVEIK , thanks.
0.1
